Tested on: HCC1428
protocolText: CTG assay for proliferation inhibition of cell lines
Format: cell-based
conditionDescription: HCC1428, 7 days, CellTiter Glo
assayMetric: IC50 (µM)

(1) CN=S(=O)(C(C)C)N1CC=C(c2cc(S(=O)(=O)NC3(C#N)CC3)cc3c(-c4nnc(C(F)F)s4)nn(C)c23)CC1 (stereo not drawn)
(2) CC(C)S(=O)(=O)N1CCN(c2c(F)c(S(=O)(=O)NC3(C#N)CC3)cc3c(-c4nnc(C(F)(F)F)s4)nn(C)c23)CC1
(3) CC(C)S(=O)(=O)N1CC=C(c2cc(S(=O)(=O)NC3(C#N)CC3)cc3c(-c4nnc(C(F)(F)F)s4)nn(CC4CNC4)c23)CC1
Put the items in order so that reported IC50 rises from first to last. Hello, could you send the labels back in the order asked? Thank you. 2, 1, 3
(2: 0.0472 µM, 1: 0.454 µM, 3: 1.68 µM)
